Give EC50 for every item shown.
tested on: poliovirus 3 (PV3); assay: microbe, parasite or virus in culture; assay type: cell-based; conditions: Enterovirus C, 72 h, read-out: EC50 PV3

Known EC50 results, listed for orientation:
CCCC(=O)C(=O)NC12C(=O)c3cccc([N+](=O)[O-])c3C1(O)Oc1cc(C(C)C)ccc12 (centres unmarked) [Example 34]: < 10 µg/mL
CC(=O)C(=O)NC12C(=O)c3ccccc3C1(O)Oc1cc(C(C)C)ccc12 (centres unmarked) [Example 4]: < 1 µg/mL
CC(C)c1ccc2c(c1)OC1(O)c3ccccc3C(=O)C21NC#N (centres unmarked) [Example 46]: > 10 µg/mL

Provide reported EC50 for each item, in the same order as listed.
1. CC(C)c1ccc2c(c1)OC1(O)c3ccccc3C(=O)C21NC(=O)C(=O)c1ccccc1 (centres unmarked) [Example 15]
2. CCCCCCC(=O)C(=O)NC12C(=O)c3ccccc3C1(O)Oc1cc(C(C)C)ccc12 (centres unmarked) [Example 6]
3. CC(C)c1ccc2c(c1)OC1(O)c3cccc(N)c3C(=O)C21NC(=O)C(=O)N(C)C (centres unmarked) [Example 31]

Result block:
["< 1 µg/mL", "1.23 µg/mL", "< 0.1 µg/mL"]

---

system: poliovirus 3 (PV3); assay: microbe, parasite or virus in culture; format: cell-based; settings: Enterovirus C, 72 h, read-out: EC50 PV3
Give EC50 for every item shown.

Known EC50 results, listed for orientation:
CC(C)CC(=O)C(=O)NC12C(=O)c3cccc([N+](=O)[O-])c3C1(O)Oc1cc(C(C)C)ccc12 (centres unmarked) [Example 38]: < 10 µg/mL
CCC(C)C(=O)C(=O)NC12C(=O)c3cccc([N+](=O)[O-])c3C1(O)Oc1cc(C(C)C)ccc12 (centres unmarked) [Example 28]: > 10 µg/mL
CSCCC(=O)C(=O)NC12C(=O)c3ccccc3C1(O)Oc1cc(C(C)C)ccc12 (centres unmarked) [Example 17]: 2.61 µg/mL

Provide reported EC50 for each item, in the same order as listed.
1. CC(C)c1ccc2c(c1)OC1(O)c3ccccc3C(=O)C21NC(=O)CCC(=O)O (centres unmarked) [Example 43]
2. Cc1cccc(C)c1NC(=O)C(=O)NC12C(=O)c3cccc([N+](=O)[O-])c3C1(O)Oc1cc(C(C)C)ccc12 (centres unmarked) [Example 26]

Result block:
> 10 µg/mL
> 10 µg/mL
